target: pooled human IgG (human IgG1,2,3 and 4)
measuredParameter: Enzyme Activity Endpoint Assay (purified): Fab′2 (ng/µL)
Respond numerically; units are ng/µL and should not be typed.

PRT-510 (protein) MITSVWTKGVTPPTDFRKIVDGNIAYYHAPYKAGQGWYDITKAFDGGDDLLCGAATAGNMLHWWFDQNKEEIEAYLKKHPEKQKIMFGDQELLDVRKVINTKDSQTNSALFNYFKDKAFPNLSARRLGVMPDLVLDMFINGYYLNVYKTQTTDVNRTYQTKDRRGGIFDAVFTRGDQSKLLTERHDLKNKTLKEISDLIKQELTEGKALGLSHTYANVRINHVINLWGADFDSNGNLEAIYVTDSDSNASIGMKKYFVGVNSAGKVAISAKEIKEDNIGAQVLGLFTLSTGQDIWNQTNLEHHHHHH :: 51
PRT-353 (protein) MSQTEDSESLQRLRDIEDFQAEKEMQNVVYTKWLDGVDVKDHDFRKIVDGNSAYYATPLLNGRGWYDINKDFNRDSDKCAAAVAANMFHYWLDINRDNVDRFLRQNPEKHGIIELPDGQLKLSDFLNTYESDHGYRDKSKLFDFISENFNGPVWTDKLLDNYINGYAYNSKYGRTIEDPTKNTSKINFFKEVFNEKILTNNHSIRNQNEFSVLLIEALYTGKAIGLSYGPAGLRHGLGHIISVWGADLDADGNVVAIYVTDSDDKKLTIGDERVGLKRYKISTDDENRLRLTAYEETHNTGGQVRGLWTLDTGKYAWADYFDKTEQTGTDQAEQ :: 101
PRT-488 (protein) MVTSVWTKGVTPPTDFRKIVDGNIAYYHAPYKAGQGWYDITKAFDGGDNLLCGAATAGNMLHWWFDQNKDQIERYLKEHPEKQKIIFNNQELFDLKAAIDTKDSQTNSELFNYFKEKAFPYLSTKHLGVFPDHVLDMFINGYRLSLTNHGPTPVKEGSKDKRGGIFDAVFTRGVQSKLLTSRHDLKNKTLKEISDLIKQELTEGKALGLSHTYANVRINHVINLWGADFDSEGNLKAIYVTDSDTNASIGMKKYFVGVNSAGKVAISAKEIKEDNIGAQVLGLFTLSTGQDIWNQTNLEHHHHHH :: 134
PRT-667 (protein) MQITSVWTKGVTPLTPEQFRYNNEDVFHAPYLAHQGWYDITKAFNGKDNLLCGAATAGNMLHWWFDQNKEEIEAYLKKHPEKQKIIFNNQELFDLRKAINTKDSQTNSQLFNYFRDKAFPNLSARQLGVMPDLVLDMFINGYYLNLNKTQSTDVNRPYQDKDKRGGIFDHVFTRGDQTTLLTARHDLKNKTLNDISQLIKQELQEGKALALSHTYANVSISHVINLWGADFNAEGNLEAIYVTDSDSDASIGMKKYFVGKNASGHVAISAKKIEGENIGAQVLGLFTLSSGKEIWQKLSLEHHHHHH :: 61

Entry under review: PRT-520 (protein) MVTSVWTKGVTPPTDFRKIVDGNIAYYHAPYKAGQGWYDITKAFDGGDNLLCGAATAGNMLHWWFDQNKEYIEAYLKKHPEKQKIIFNNQELFDLKAAINTKGSQKNSELFNYFRDKAFPNLSARRLGVFPDLVLDMFINGYYLNVTKTQTTDVNRTYQEKDKRGGIFDAVFTRGVQSKLLTSRHDLKNKGLKEISDLIKQELTEGKALGLSHTYANVRINHVINLWGADFDSDGNLKAIYVTDSDTNASIGMKKYFVGVNSAGKVAISAKEIKEDNIGAQVLGLFTLSTGQDIWNQTNLEHHHHHH . Reported Enzyme Activity Endpoint Assay (purified): Fab′2? 271

Entry under review: PRT-498 (protein) MVTSVWTKGVTPPTDFRKIVDGNIAYYHAPYKAGQGWYDITKAFDGGDDLLCGAATAGNMLHWWFDQNKEYIEAYLKKHPEKQKIMFGDQELLDVRKAINTKGSQKNSELFNYFRDKAFPNLSARRLGVMPDLVLDMFINGYYLNVTKTQTTDVNRTYQEKDKRGGIFDAVFTRGDQSKLLTSRHDLKNKGLKEISDLIKQELTEGKALGLSHTYANVRINHVINLWGADFDSDGNLKAIYVTDSDSNASIGMKKYFVGVNSAGKVAISAKEIKEDNIGAQVLGLFTLSTGQDIWNQTNLEHHHHHH . Reported Enzyme Activity Endpoint Assay (purified): Fab′2? 488

Entry under review: PRT-505 (protein) MVTSVWTKGVTPPTDFIKGEDVFHAPYKAGQGWYDITKAFDGGDDLLCGAATAGNMLHWWFDQNKEYIEAYLKKHPEKQKIMFGDQELLDVRKAINTKGSQKNSELFNYFRDKAFPNLSARRLGVMPDLVLDMFINGYYLNVTKTQTTDVNRQEQEKDKRGGIFDAVFGRGDQTKLLTSRHDLKNKGLKEISDLIKQELTEGKALGLSHTYANVRINHVINLWGADFDSDGNLKAIYVTDSDSNASIGMKKYFVGVNSAGKVAISAKEIKEDNIGAQVLGLFTLSTGQKIWNKTNLEHHHHHH . Reported Enzyme Activity Endpoint Assay (purified): Fab′2? 37

Entry under review: PRT-517 (protein) MITSVWTKGVTPPTDFIKGEDVFHAPYKAGQGWYDITKAFDGGDDLLCGAATAGNMLHWWFDQNKEEIEAYLKKHPEKQKIMFGDQELLDVRKVINTKDSQTNSALFNYFKDKAFPNLSARRLGVMPDLVLDMFINGYYLNVYKTQTTDVNRQEQTKDRRGGIFDAVFGRGDQTKLLTERHDLKNKTLKEISDLIKQELTEGKALGLSHTYANVRINHVINLWGADFDSNGNLEAIYVTDSDSNASIGMKKYFVGVNSAGKVAISAKEIKEDNIGAQVLGLFTLSTGQKIWNKTNLEHHHHHH . Reported Enzyme Activity Endpoint Assay (purified): Fab′2? 0
